system: morning glory (Ipomoea hederacea); test: Test B postemergence; format: in vivo; conditions: Rate 125 g/ha, scale 0 (no effect) to 100 (complete control), 13 to 15 days
MEASURED ATTRIBUTE: Plant response rating, Morningglory
Numbers only.

- COMPOUND: "O=C1C(n2ccc(C3CCC3)n2)SCN1c1cccc(C(F)(F)F)c1 (centres unmarked)"
  Plant response rating, Morningglory: 20
- COMPOUND: "CCC(C)c1ccn(C2SCN(c3cccc(C(F)(F)F)c3)C2=O)n1 (centres unmarked)"
  Plant response rating, Morningglory: 60
- COMPOUND: "COc1cc(N2CCC(n3ccc(C(C)(C)C)n3)C2=O)ccc1C (centres unmarked)"
  Plant response rating, Morningglory: 60
- COMPOUND: "O=C1C(n2ccc(C3CCC3)n2)SCN1c1cccc(OC(F)F)c1 (centres unmarked)"
  Plant response rating, Morningglory: 0

Now for a further compound.
Field request: Plant response rating, Morningglory | item: CC(C)(C)c1ccn(C2CCN(c3cccc(C(F)(F)F)c3)C2=O)n1 (centres unmarked)
0

====

tested on: kochia (Kochia scoparia); assay: Test C preemergence; format: in vivo; conditions: preemergence, Rate 500 g/ha, visual evaluation after 12 to 14 days
MEASURED ATTRIBUTE: Plant response rating (0 to 100), Kochia
Give bare numbers.

Please review the entries below; each comes with its answer.
- COMPOUND: "CC1(c2ccn(C3SCN(c4cccc(OC(F)(F)F)c4)C3=O)n2)CC1 (stereo not shown) [Compound 63]"
  REPORTED: 100
- COMPOUND: "CCC(C)c1ccn(C2CCN(c3cccc(OC)c3)C2=O)n1 (stereo not shown) [Compound 95]"
  REPORTED: 100
- COMPOUND: "CC(C)(C)c1ccn(C2CCN(c3cccc(I)c3)C2=O)n1 (stereo not shown) [Compound 88]"
  REPORTED: 100
- COMPOUND: "CCCC(C)c1ccn(C2CCN(c3cccc(C(F)(F)F)c3)C2=O)n1 (stereo not shown) [Compound 100]"
  REPORTED: 100
- COMPOUND: "CCC(C)c1ccn(C2CCN(c3ccc(Cl)c(OC)c3)C2=O)n1 (stereo not shown) [Compound 119]"
  REPORTED: 100

Parameters: items (list). Returns: Plant response rating (0 to 100), Kochia for each item.
1. CCOC(=O)c1cccc(N2CCC(n3ccc(C(C)(C)C)n3)C2=O)c1 (stereo not shown) [Compound 72]
2. COc1cc(N2CCC(n3ccc(C(C)(C)C)n3)C2=O)ccc1Cl (stereo not shown) [Compound 117]
3. CC1(c2ccn(C3OCN(c4cccc(C(F)(F)F)c4)C3=O)n2)CC1 (stereo not shown) [Compound 62]
4. CCC(CC)c1ccn(C2CCN(c3ccc(Cl)c(OC)c3)C2=O)n1 (stereo not shown) [Compound 118]
5. CCCC(C)c1ccn(C2CCN(c3ccc(Cl)c(OC)c3)C2=O)n1 (stereo not shown) [Compound 121]
6. CCOc1cccc(N2CCC(n3ccc(C(C)(C)C)n3)C2=O)c1 (stereo not shown) [Compound 130]
7. CC1(c2ccn(C3SCN(c4cccc(C(F)(F)F)c4)C3=O)n2)CC1 (stereo not shown) [Compound 64]
8. COc1cc(OC)cc(N2CCC(n3ccc(C(C)(C)C)n3)C2=O)c1 (stereo not shown) [Compound 71]

1: 100; 2: 100; 3: 90; 4: 100; 5: 100; 6: 100; 7: 100; 8: 100
